Below is a list of entries, each paired with its recorded growth value.
Test system: SF-268 CNS
run.description: NCI-60 one-dose screen, 48 h (100 = growth as untreated, 0 = no growth, -100 = all killed)
measurement.context: 10 µM unless noted
Procedure: Cells are grown in 96 well plates and exposed to the test compound for 48 hours. Compounds are tested at a single concentration, which is 10^-5 M for most compounds. The reported endpoint is percent growth (GI% or GIPRCNT), where numbers from 0 - 100% represent growth inhibition, and numbers from -100% - 0 represent cell death. For example, a value of 40 represents 60% growth inhibition. A value of 0 means no net growth occurred over the course of the experiment. […]
About 83,000 compounds went through this panel and 20% of them were active in at least one assay; those are over-represented in the sample as a whole.
parameter.measured: growth (%)

O=C(Nc1ccc(Cl)cc1F)c1cc(F)ccc1O: 13.4
Cn1nc(C(F)(F)F)c(-c2ccc(Cl)c(C(F)(F)F)c2)c1-c1ccc(OCc2ccc(Cl)cc2)cc1O: 26
O=C(NN1C(=O)CSC1c1ccc(Cl)cc1)c1[nH]c2ccc(F)cc2c1-c1ccccc1 (stereo unspecified): 65.1
Cc1ccc2nc(NC(=O)CSC(=S)N3CCN(c4ccccc4)CC3)sc2c1: 101
CCOC(=O)C1(Cc2ccccc2)CCN(Cc2cccc(OC)c2O)CC1: 5.65
NCCNc1nc2ccccc2c2c(=O)c3cc(F)cc(Cl)c3sc12: -42.4
O=C(Nc1ccc(Cl)cc1F)c1cc(Br)ccc1O: 13.6
CC(=O)c1ccc(Nc2nc(NCCO)nc(Nc3ccc(Cl)cc3)n2)cc1: 91.9
C=C1C(=O)O[C@H]2[C@H]1CC/C(COC(=O)/C=C\C(=O)O)=C\CC[C@@]1(C)O[C@@H]21: 100
NC1C(N)C(N)C1N (stereo unspecified): 109
COc1cccc(/C(C#N)=C/c2nc3c(N4CCOCC4)nc(Cl)nc3n2C)c1: -24.4
COC(=O)C1=Nc2ccc(F)cc2/C1=C/c1sc(=S)[nH]c1O: 13.1
O=C(Cc1ccccc1)NC(c1ccc(Cl)cc1)c1c(O)ccc2ccccc12 (stereo unspecified): 29.2
Oc1ccc(-c2nc(-c3ccc4oc5ccc(-c6[nH]c(-c7ccc(O)cc7)nc6-c6ccccc6)cc5c4c3)c(-c3ccccc3)[nH]2)cc1: 63.5
C=C(C)CCC(C)N1CCC(N2CCC(C(=O)NCCc3ccccc3)CC2)CC1 (stereo unspecified): 57.8
COC(=O)c1c2c(c(C)[n+]([O-])c1C)C(=O)C=C(NCc1ccccc1)C2=O: -4.22
CCOC(=O)c1cc2c(n1Cc1ccccc1)-c1oncc1CCC2: 88.7
COc1cccc(/C=C/C(=O)c2c(C)nc3ccccc3c2/C=C/c2ccccc2)c1OC: 38.8
CCc1ccc(CNCC(O)c2ccccc2)cc1 (stereo unspecified): 90.1
Cc1ccc2c(n1)C(=O)C(Oc1ccc(Br)cc1)=CC2=O: 88.4
CC(C)[C@H](NC(=O)Cn1cc(C(=O)O)nn1)C(=O)O: 115
COc1ccc(/C=C2\NC(=O)NC2=O)cc1O: 106
Cc1ccc(NC2=CC(=O)C(=O)c3ccccc32)c(C)c1: 63.2
O=C(CSc1nc2ccccc2c(=O)n1-c1ccccc1)Nc1ccc(C(=O)/C=C/c2ccc(Cl)cc2)cc1: 115
OC(CNC1CCCCC1)Cn1c2ccc(I)cc2c2cc(I)ccc21 (stereo unspecified): 91.8
CN1CCN(c2nc(Nc3ccc(O)cc3)nc3ccccc23)CC1: 52.5
COc1cccc2cc(N(C)c3nc(C)nc4ccsc34)ccc12: 21.7
COc1nc2c(c(=O)n1C)N=C1c3ccccc3C(=O)C1C(c1ccccc1)N2 (stereo unspecified): 85.3
O=C(/C=C/c1ccc(C(F)(F)F)cc1)c1ccc(Nc2nc(NCCO)nc(Nc3ccc(Cl)cc3)n2)cc1: 50.6
O=C(N/N=C/c1ccccc1Cl)C(=O)Nc1cccc(C(F)(F)F)c1: 105
COc1ccc(/C=C/C(=O)c2ccc(Nc3nc(NCCO)nc(Nc4ccc(Cl)cc4)n3)cc2)cc1: 65.7
CC[C@]1(O)C[C@@H]2CN(CCc3c([nH]c4ccccc34)[C@@](C(=O)OC)(c3cc4c(cc3OC)N(C)[C@H]3[C@@](O)(C(=O)OC)[C@H](OC(=O)CCCBr)[C@]5(CC)C=CCN6CC[C@]43[C@@H]65)C2)C1: 21.2
Clc1ccc(Oc2ccc(Nc3ncnc4onc(-c5ccccc5)c34)cc2)c(Cl)c1: 102
Cc1ccc(C)c(-c2csc(Nc3ccc(C)c(C)c3)n2)c1: 75.5
NNC(=O)CNC(=O)Nc1n[nH]c(=S)s1: 107
CCCCCCc1cc2cc(-c3nc4ccccc4[nH]3)c(=Nc3ccccc3C)oc2cc1O: 65.5
COCCN(C(=O)Cc1cccs1)C(C(=O)NCc1ccc(OC)cc1)c1ccc(C(C)C)cc1 (stereo unspecified): 57.8
CCCCc1ccc(NS(=O)(=O)c2cc3c4c(c2)CCN4C(=O)CC3)cc1: 5.78
CC1(C)CC2(C)OC2C2(C1)N=NC(=Nc1ccccc1)O2 (stereo unspecified): 83.3
O=C(N/N=C/c1ccccc1O)C(=O)Nc1ccc(F)cc1: 48.8
O=C(CCc1nnc2sc(COc3ccccc3)nn12)c1nc2ncccc2[nH]1: 96
